# PROCEDURE DETAILS: Luciferase activity of purified RLuc mutants (light output integrated over 10 s, luminometer)
# Type: biochemical
# CONDITION PARAMETERS: native coelenterazine; relative to native enzyme
PROPERTY LABEL: Activity (relative to RLuc) native

Which Activity (relative to RLuc) native reading was recorded for the molecule E44G/C124A: RLuc mutant E44G/C124A (protein) MASKVYDPEQRKRMITGPQWWARCKQMNVLDSFINYYDSEKHAGNAVIFLHGNAASSYLWRHVVPHIEPVARCIIPDLIGMGKSGKSGNGSYRLLDHYKYLTAWFELLNLPKKIIFVGHDWGAALAFHYSYEHQDKIKAIVHAESVVDVIESWDEWPDIEEDIALIKSEEGEKMVLENNFFVETMLPSKIMRKLEPEEFAAYLEPFKEKGEVRRPTLSWPREIPLVKGGKPDVVQIVRNYNAYLRASDDLPKMFIESDPGFFSNAIVEGAKKFPNTEFVKVKGLHFSQEDAPDEMGKYIKSFVERVLKNEQ ?
0.94
